- Measurement Target: BRM AT-L-BD WT (BRM-B) (Homo sapiens, UniProt P51531-2 1358-1490)
- Measurement Description: fluorescence anisotropy
Metric: Kd

INSERT INTO assay_data (binder, result) VALUES
  ('DNA.FA 12 bp dsDNA (dsDNA) DNA 1: CCTCAATTGGTC DNA 2: GACCAATTGAGG', '8 µM');

Each recorded value in this set is attributed to paper PMC8184587.
